- subject_of_test: T1, DLG3_2, Q92796
- T1 sequence (Q92796 221-321, limits assumed, looked up): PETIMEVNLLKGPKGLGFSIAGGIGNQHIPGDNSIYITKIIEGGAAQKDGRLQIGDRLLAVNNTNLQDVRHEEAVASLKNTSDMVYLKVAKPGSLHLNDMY
- assay_protocol: holdup assay
- Parameters: key: below the threshold = too weak to quantify, mostly under pKd 3.1 to 4
- test_parameters: plain residues with an end cap or a label only (N-terminal biotin on a linker: ado-ado)
# pKd listing for each entry below

Below: 3 binders and their reported pKd.
binder: RKPKPSSSCC [RAB9A, P51151]
pKd: 4.1
//
binder: QGPVETESVV [SLC45A4, Q5BKX6]
pKd: 4.47
//
binder: TACCHSETVV [TGFA, P01135]
pKd: 4.74

Lab note: next binder to report on.
Query block: Record request: pKd value, item VNKSKLLTDV [KCNA1, Q09470]
Result block: 4.7
